Cited source for all entries: ChEMBL document CHEMBL1148343

What Ki was measured for each of the following?
# assay-system: Thymidylate synthase (Lactobacillus casei, UniProt P00469)
# Sequence (P00469 whole entry): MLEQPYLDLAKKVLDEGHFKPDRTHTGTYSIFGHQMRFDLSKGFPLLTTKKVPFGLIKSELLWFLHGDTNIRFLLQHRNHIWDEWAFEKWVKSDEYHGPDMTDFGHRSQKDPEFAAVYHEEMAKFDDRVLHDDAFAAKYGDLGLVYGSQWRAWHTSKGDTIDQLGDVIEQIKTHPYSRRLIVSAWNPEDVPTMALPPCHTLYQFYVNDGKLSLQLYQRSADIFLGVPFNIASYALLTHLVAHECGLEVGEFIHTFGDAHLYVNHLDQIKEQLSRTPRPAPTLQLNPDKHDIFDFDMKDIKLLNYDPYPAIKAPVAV
Include the unit right after the number.

- smiles-notation: "O=C(O)CC[C@H](NC(=O)c1ccc(S(=O)(=O)N2CCC[C@@H]2C(=O)O)cc1)C(=O)O"
  Ki: "24 µM"

Attention now turns to another entry.
Using the record for O=C(O)CCNC(=O)[C@H]1CCCN1S(=O)(=O)c1ccc(C(=O)N[C@@H](CCC(=O)O)C(=O)O)cc1 , report its Ki.
0.33 µM

###

Hi there, I'd appreciate the recorded pKi for every entry that follows.
# assay-system: Mitogen-activated protein kinase 10 (Homo sapiens)
# Sequence (P53779 whole entry): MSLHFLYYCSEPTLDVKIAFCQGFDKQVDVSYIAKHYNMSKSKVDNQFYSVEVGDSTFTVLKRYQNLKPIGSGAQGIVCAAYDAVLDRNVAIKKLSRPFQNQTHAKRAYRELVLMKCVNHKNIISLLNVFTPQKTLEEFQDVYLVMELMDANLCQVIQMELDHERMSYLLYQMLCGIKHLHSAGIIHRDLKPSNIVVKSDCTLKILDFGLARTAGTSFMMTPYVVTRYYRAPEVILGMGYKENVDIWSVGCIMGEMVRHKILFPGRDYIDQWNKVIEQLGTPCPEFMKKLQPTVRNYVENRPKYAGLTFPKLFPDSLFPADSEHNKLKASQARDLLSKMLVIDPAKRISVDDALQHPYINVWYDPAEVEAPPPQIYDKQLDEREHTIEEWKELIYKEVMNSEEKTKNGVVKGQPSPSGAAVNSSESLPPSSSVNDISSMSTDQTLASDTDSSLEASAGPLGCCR
# test-description: Affinity for c-Jun N-terminal kinase 3
Answers are plain numbers, as −log10 of the molar value.

- smiles-notation: "O=C(Nc1cccc(C(F)(F)F)c1)c1csc(-c2ccncc2)n1"
  pKi: 4.89

Now examine the next entry.
Recorded pKi for O=C(Nc1ccccc1)c1c(Nc2ccccc2)[nH]c(=O)[nH]c1=O with Mitogen-activated protein kinase 10 (Homo sapiens), please?
6.14

###

# assay-system: Nucleic Acid
# test-description: Dissociation constant towards Mutant U1061A RNA
Please provide measured Kd for the entries that follow.

Recorded results for 3 compounds are shown here.
- smiles-notation: "NCC[C@@H](NC(=O)c1ccco1)C(=O)N1CCNCC1"
  measured-result: "> 100 µM"
- smiles-notation: "O=C(O)c1ccc2nc(O)c(O)nc2c1"
  measured-result: "> 100 µM"
- smiles-notation: "NCC[C@@H](NC(=O)c1ccc(-c2cccc(NC(=O)c3ccc4nc(O)c(O)nc4c3)c2)o1)C(=O)N1CCNCC1"
  measured-result: "6.5 µM"

Proceeding to the next compound to report its Kd.
Name the reported Kd value associated with the compound CCCNC(=O)c1ccc2nc(O)c(O)nc2c1
> 100 µM

###

# test-description: Oral bioavailability
# Format: ADME, organism-based
# condition-notes: eutheria, in vivo
value-type: bioavailability (%)
Give bare numbers, in %.

Query: bioavailability; subject: Nc1ccc2cccc(Nc3ncccn3)c2n1
38
